molecular target: BRD4(BD1) (Homo sapiens); assay: HTRF assay, BRD4(BD1)/histone peptide interaction; type: binding; set-up: made in house; details: HTRF; mean of three experiments; NA = IC50 > 50 μM; read-out: Brd4(8D1) IC50
Field: log10 of IC50. Provide a value for each of the molecules that follow.
Could you please treat all values as log10 of IC50 in nM?

IN: Give reported log10 of IC50 value for CCn1cnc2c1c(=O)[nH]c(=O)n2Cc1ccc(CNS(=O)(=O)c2cc3ccccc3s2)cc1 [Compound 25b]
OUT: 2.89

IN: Give reported log10 of IC50 value for CCn1cnc2c1c(=O)[nH]c(=O)n2Cc1ccc(CNS(=O)(=O)c2ccc(C(=O)N3CCOCC3)cc2)cc1 [Compound 44b]
OUT: 2.09

IN: Give reported log10 of IC50 value for CCn1cnc2c1c(=O)[nH]c(=O)n2Cc1ccc(CNS(=O)(=O)c2ccc(OC3CCCCC3)cc2)cc1 [Compound 43a]
OUT: 2.31

IN: Give reported log10 of IC50 value for CCn1cnc2c1c(=O)[nH]c(=O)n2Cc1ccc(CNS(=O)(=O)c2ccc(OC3CCOCC3)c(F)c2)cc1 [Compound 43c]
OUT: 1.87

IN: Give reported log10 of IC50 value for CCn1cnc2c1c(=O)[nH]c(=O)n2Cc1ccc(CNS(=O)(=O)c2ccc(Oc3ccccc3)cc2)cc1 [Compound 30c]
OUT: 2.71

IN: Give reported log10 of IC50 value for Cc1noc(C)c1CCNC(=O)C1CCC(CNS(=O)(=O)c2ccc3c(c2)CCCC(=O)N3)CC1 (centres unmarked) [Compound 9a]
OUT: 4.20

IN: Give reported log10 of IC50 value for CCn1cnc2c1c(=O)[nH]c(=O)n2Cc1ccc(CNS(=O)(=O)c2ccc(OC3CCOCC3)cc2)cc1 [Compound 43b]
OUT: 1.98

IN: Give reported log10 of IC50 value for CCn1cnc2c1c(=O)[nH]c(=O)n2Cc1ccc(CNS(=O)(=O)c2ccn(-c3ccccc3)n2)cc1 [Compound 24b]
OUT: 2.93
